# System: SF-268 CNS
# test-description: NCI-60 one-dose screen, 48 h (100 = growth as untreated, 0 = no growth, -100 = all killed)
# study-conditions: 10 µM unless noted
This is part of a sample that, as a whole, favours compounds with a hit. Of some 83,000 tested, about 20% had one in any assay.
Measured growth values are reported for all entries that follow.
Numeric answer only, unit % assumed.

Example entries and their recorded answers appear below.
compound	growth, %
CCOC(=O)Nc1ccc2nc(N3CCCCCC3)sc2c1	49
CN1C(=O)NC(Cc2c[nH]c3c(Cl)cccc23)C1=O (stereo not given)	110
CC(C)(C)OC[C@@H]1N=C(c2ccc(Br)cc2)Nc2nc3ccccn3c2C1=O	74.3

Proceed to the following item.
(Q) Reported growth for C=CCCCCOc1cccc(/C=C2\N=C3SCCCN3C2=O)c1 : what is it?
(A) 110

---

# Tested on: SF-539 CNS
# test-description: NCI-60 one-dose screen, 48 h (100 = growth as untreated, 0 = no growth, -100 = all killed)
# study-conditions: 10 µM unless noted
# Protocol: Cells are grown in 96 well plates and exposed to the test compound for 48 hours. Compounds are tested at a single concentration, which is 10^-5 M for most compounds. The reported endpoint is percent growth (GI% or GIPRCNT), where numbers from 0 - 100% represent growth inhibition, and numbers from -100% - 0 represent cell death. For example, a value of 40 represents 60% growth inhibition. A value of 0 means no net growth occurred over the course of the experiment. […]
The panel holds about 83,000 compounds, 20% with a hit somewhere; the sample as a whole holds those more often. Active and inactive are the calls of the source. The calls were made as follows: active = growth percent below 10; inactive = the rest.
Measured growth values are reported for all entries that follow.

Example entries and their recorded answers appear below.
molecule	result
CC(C)(C)[Si](C)(C)OC1[C@@H](O[Si](C)(C)C(C)(C)C)[C@@H](CNC(=O)NC(=O)NC(=O)CCl)O[C@H]1n1cnc2c(NC(=O)Nc3ccccc3)ncnc21 (stereo not given in full)	82.7% (inactive)
CC1=CCC2C1CC=C(C)C(CC[C@H]1[C@@](C)(O)CCC3OC(C)(C)[C@H](OC(=O)c4ccccc4)CC[C@@]31C)C2(C)C (stereo not given in full)	99.1% (inactive)
CCCCOc1nc2ccc(C)cc2cc1/C=C/C(=O)/C=C(O)/C=C/c1cc2cc(C)ccc2nc1OCCCC	103% (inactive)
CCCCCCCCCCCCCCCCCC(=O)OCCCCCCCCCCCCC	101% (inactive)
NS(=O)(=O)c1ccc(CCn2c(SCC(=O)N/N=C/c3cc4ccccc4[nH]3)nc3ccccc3c2=O)cc1	82.8% (inactive)
CCCCCCCCCCCCCCCC1=NCCN1	72.5% (inactive)
COc1cc2ncnc(Nc3ccc(S(=O)(=O)Nc4nccs4)cc3)c2cc1OCCCN1CCOCC1	98.6% (inactive)
O=C(C(=O)N1CCCC1)c1cn(CCCn2cc(C(=O)C(=O)N3CCCC3)c3cc(Br)ccc32)c2ccc(Br)cc12	69.5% (inactive)

(Q) Reported growth for C#CCO[C@H]1CC[C@H](OCC#C)[C@@H]2[C@H]1[C@H]1C[C@@H]3[C@@]4(C)CCC[C@@](C)(C(=O)OC)[C@@H]4CC[C@@]23C=C1C(C)C : what is it?
(A) 70.9% (inactive)

(Q) Then this molecule: O=c1c2cc(Cl)ccc2oc2ccc(OCCCCCN3CCCCC3)cc12
(A) 58.3% (inactive)

# credit: PubChem BioAssay (NCI)
